# Target desc: Pho80/Pho85/Pho81 complex (Saccharomyces cerevisiae S288c, UniProt P17157+P17442+P20052)
# Sequence (P17157 whole entry, one chain of several): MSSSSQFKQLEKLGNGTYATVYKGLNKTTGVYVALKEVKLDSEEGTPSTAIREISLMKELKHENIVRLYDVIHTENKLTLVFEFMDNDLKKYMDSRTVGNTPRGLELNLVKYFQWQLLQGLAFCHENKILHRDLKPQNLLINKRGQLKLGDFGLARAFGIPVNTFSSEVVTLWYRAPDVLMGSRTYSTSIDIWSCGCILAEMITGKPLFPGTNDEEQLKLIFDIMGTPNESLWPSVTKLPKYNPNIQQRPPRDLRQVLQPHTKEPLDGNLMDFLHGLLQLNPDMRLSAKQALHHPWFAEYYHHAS
# Sequence (P20052 whole entry, one chain of several): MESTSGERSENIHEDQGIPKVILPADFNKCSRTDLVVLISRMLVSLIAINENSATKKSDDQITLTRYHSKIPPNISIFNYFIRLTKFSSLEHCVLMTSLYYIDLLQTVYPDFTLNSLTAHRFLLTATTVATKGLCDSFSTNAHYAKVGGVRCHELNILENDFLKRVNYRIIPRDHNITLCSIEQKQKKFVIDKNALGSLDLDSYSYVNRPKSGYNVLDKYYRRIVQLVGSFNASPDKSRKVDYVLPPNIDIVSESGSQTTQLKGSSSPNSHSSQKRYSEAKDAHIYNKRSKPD
# Assay overview: Inhibition of Saccharomyces cerevisiae Pho80-Pho85-Pho81-MD catalyzed phosphorylation of Pho4-site 6 peptide
Value type: pIC50
Please report pIC50 as the negative decimal logarithm of the molar concentration, giving only the number.

Q: Give pIC50 for O=P(O)(O)O[C@H]1[C@@H](OP(=O)(O)O)[C@@H](OP(=O)(O)O)[C@H](OP(=O)(O)OP(=O)(O)O)[C@@H](OP(=O)(O)O)[C@@H]1OP(=O)(O)O
Result: 4.60

###

# Target desc: Phosphate system positive regulatory protein PHO81 (Saccharomyces cerevisiae S288c)
# Sequence (P17442 whole entry): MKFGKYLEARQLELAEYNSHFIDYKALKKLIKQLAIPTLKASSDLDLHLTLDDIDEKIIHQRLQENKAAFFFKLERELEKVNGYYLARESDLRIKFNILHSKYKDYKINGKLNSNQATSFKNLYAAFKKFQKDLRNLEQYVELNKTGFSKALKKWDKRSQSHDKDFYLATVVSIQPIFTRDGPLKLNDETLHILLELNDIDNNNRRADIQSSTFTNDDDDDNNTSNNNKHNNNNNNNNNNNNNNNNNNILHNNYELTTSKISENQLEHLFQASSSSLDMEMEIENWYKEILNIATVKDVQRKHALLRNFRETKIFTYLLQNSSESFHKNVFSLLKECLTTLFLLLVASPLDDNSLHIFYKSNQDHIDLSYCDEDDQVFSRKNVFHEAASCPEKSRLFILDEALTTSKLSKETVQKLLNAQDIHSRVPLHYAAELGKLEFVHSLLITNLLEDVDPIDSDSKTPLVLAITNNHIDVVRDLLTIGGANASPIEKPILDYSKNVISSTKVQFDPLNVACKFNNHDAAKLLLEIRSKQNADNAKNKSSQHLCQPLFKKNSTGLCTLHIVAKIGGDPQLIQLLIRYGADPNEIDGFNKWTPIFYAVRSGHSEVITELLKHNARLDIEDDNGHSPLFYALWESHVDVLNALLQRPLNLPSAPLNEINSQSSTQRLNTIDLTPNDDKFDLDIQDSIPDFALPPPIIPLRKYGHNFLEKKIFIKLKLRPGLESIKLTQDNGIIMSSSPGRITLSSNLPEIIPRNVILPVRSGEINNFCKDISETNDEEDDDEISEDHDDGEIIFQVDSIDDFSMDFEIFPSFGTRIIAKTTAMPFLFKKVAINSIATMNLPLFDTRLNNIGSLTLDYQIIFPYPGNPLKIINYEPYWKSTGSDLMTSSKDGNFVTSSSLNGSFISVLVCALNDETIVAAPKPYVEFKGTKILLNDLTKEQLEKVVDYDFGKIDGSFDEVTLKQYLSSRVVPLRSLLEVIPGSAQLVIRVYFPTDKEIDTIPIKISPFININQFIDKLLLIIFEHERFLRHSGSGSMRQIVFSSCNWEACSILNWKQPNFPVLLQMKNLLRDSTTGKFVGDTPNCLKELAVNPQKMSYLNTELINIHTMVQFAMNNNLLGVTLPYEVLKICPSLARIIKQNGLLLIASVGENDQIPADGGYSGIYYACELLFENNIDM
# Assay overview: Inhibition of Saccharomyces cerevisiae Pho81-MD-MD dependent Pho80-Pho85 activity after 60 mins
Value type: IC50 (µM)
Report only the number, with the unit µM understood.

Q: Item O=P(O)(O)O[C@H]1[C@@H](OP(=O)(O)O)[C@@H](OP(=O)(O)O)[C@H](OP(=O)(O)OP(=O)(O)O)[C@@H](OP(=O)(O)O)[C@@H]1OP(=O)(O)O : provide IC50
Result: 31

###

# Target desc: Pho80/Pho85/Pho81 complex (Saccharomyces cerevisiae S288c, UniProt P17157+P17442+P20052)
# Assay overview: Competitive inhibition of Saccharomyces cerevisiae Pho80-Pho85-Pho81-MD catalyzed phosphorylation of Pho4 assessed as increase in substrate concentration by line-weaverberk plot assay
Value type: pKi
// scale note: pKi = -log10(conc_M); give the bare number

Q: For the compound O=P(O)(O)O[C@H]1[C@@H](OP(=O)(O)O)[C@@H](OP(=O)(O)O)[C@H](OP(=O)(O)OP(=O)(O)O)[C@@H](OP(=O)(O)O)[C@@H]1OP(=O)(O)O , report pKi.
Result: 4.72

###

# Target desc: UniProtKB P17442
# Assay overview: Inhibition of Saccharomyces cerevisiae Pho81-MD-dependent Pho80-Pho85 activity after 30 mins
Value type: IC50 (µM)
Use µM as the unit, but write only the number.

Q: Specify IC50 for O=P(O)(O)O[C@H]1[C@@H](OP(=O)(O)O)[C@@H](OP(=O)(O)O)[C@H](OP(=O)(O)OP(=O)(O)O)[C@@H](OP(=O)(O)O)[C@@H]1OP(=O)(O)O , system UniProtKB P17442.
Result: 14
